The origin of these recorded values is PubChem BioAssay (NCI).

test summary: NCI Yeast Anticancer Drug Screen. Data for the cln2 rad14 strain (AID 165);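 further: 0% = growth equal to vehicle treated cultures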
assay context: S. cerevisiae cln2 rad14 strain, at 50.0 µM, hits give high values
Compounds without any hit were thinned out: in the full panel of roughly 79,000, 15% have a hit.
Examples of compounds with documented growth inhibition follow.

compound	unit text	growth inhibition
C/C=C\COC(=O)CC(C)=O	%	-2.75
c1cc2cc(c1)CNCCNCCNCc1cccc(c1)CNCCNCCNC2	%	16.9
CCOc1c(OC)ccc(C(C)=O)c1O	%	-2.35
CN(C)CCN(CCN(C)C)CCN(C)C	%	9.45
CC(=O)c1c(C)cc(C(C)(C)C)cc1C	%	-0.55
NNS(=O)(=O)c1cccc(S(=O)(=O)NN)c1	%	-4.25
NC(=O)C(NN=C1c2ccccc2-c2ccccc21)(c1ccccc1)c1ccccc1	%	42.8
Clc1cc2ncn(C3CCCO3)c2cc1Cl (configuration not stated)	%	5.95
Cc1cc(Cl)c(Cl)cc1Cl	%	-4
CC(CN(C)C)/C(=N\Nc1ccccc1)c1ccccc1 (configuration not stated)	%	1.1
CCN(CC)CCCNc1nc2ccccc2c2[nH]c3ccc(OC)cc3c12	%	-36.8
Cc1cc(CN(C)C)cc(C(C)C)c1O	%	34.1
O=C(Cl)c1cc2ccccc2c2c(=O)c3ccc4cc5ccccc5cc4c3[nH]c12	%	-53.8
CCc1[nH]c(=O)c2oc3cc4ccccc4cc3c2c1C(=O)O	%	-29.4
CCOC(=O)N1C2C(c3ccccc3)=NC(C)(C)N2C(c2ccc([N+](=O)[O-])cc2)N1C(=O)OCC (configuration not stated)	%	15.2
CC(C)COC(=O)c1ccc(C(C)C)cc1	%	-9.8
COc1ccc(C(=O)c2ccc(C)c3c(C)cccc23)cc1	%	-16.6
CCC(CC)CC1CCCCC1O (configuration not stated)	%	-17.2
O=C(CC(=O)C(F)(F)F)Nc1cccc2ccccc12	%	-84.5
O=c1[nH]c(Nc2ccccc2)nc2c1ncn2CC(O)CSCCO (configuration not stated)	%	8.45
CCc1nc(Nc2cccc(C)c2)c2cnn(-c3ccccc3)c2n1	%	-22.5
CN(C)CCC(=O)c1ccc(C(=O)CCN(C)C)cc1	%	-14.8
Cc1ccc(Cl)cc1NC(=O)CCc1ccccc1	%	-1.6
CCCSc1nc2c(c(=O)n(C)c(=O)n2C)n1C	%	-9.3
C=C(NC(C)=O)C(=O)O	%	4.5
CC1(c2ccccc2)OCC(c2ccccc2)O1 (configuration not stated)	%	-22
CCC[CH2][Ge]([Cl])([Cl])[CH2]CCC	%	14.9
Cc1cccc(NC(=O)c2ccc(Cl)cc2Cl)n1 (tested in a mixture with another compound)	%	-25.6
O=C1c2cc([N+](=O)[O-])cc3cc([N+](=O)[O-])cc(c23)C(=O)N1CCNCCNCCNCCN1C(=O)c2cc([N+](=O)[O-])cc3cc([N+](=O)[O-])cc(c23)C1=O	%	90.8
O=C(Nc1cc2c(cc1[N+](=O)[O-])-c1c(F)cccc1C2)C(F)(F)F	%	-14.2
CC(C)COC(=O)N1N=NC2C3OC(CC3=O)C21 (configuration not stated)	%	8.8
CCCCOC(=O)NC(C)=O	%	-11.6
CCOC(=O)C(CCCOC1CCCCO1)(C(=O)OCC)c1ccccc1 (configuration not stated)	%	14.4
CCN(CC)CCOCC(=O)Nc1ccccc1C	%	-37.5
CC(C)=CCNC(N)=O	%	11
O=C(/C=C/c1ccc(O)cc1)c1ccc(Cl)cc1	%	-36.9
O=C1c2ccccc2-c2ccc(-c3ccc4c5c(cccc35)C(=O)c3ccccc3-4)c3cccc1c23	%	-0.85
C=C1C(=O)OC2(C)CCC1CC1OC1(C)CC/C=C(\C)CCC2OC(C)=O (configuration not stated)	%	8.25
C=C1C(=O)SC(=NCc2ccccc2)N1C	%	19.9
O=C(NNC(=O)c1cccc2ccccc12)c1ccccc1F	%	1.35
CCCCCCC(=O)c1ccco1	%	14.9
NNS(=O)(=O)c1ccc(/C=C2\NC(=O)NC2=O)cc1	%	13.2
